Target: human cathepsin B (CatB) (Homo sapiens, UniProt P07858)
Construct: purchased BPS Bioscience
Experiment: Cathepsin B enzymatic assay
Assay type: biochemical
Settings: Table 2; three independent experiments; read-out: IC50 CatB
measure name: IC50

{"columns": ["molecule", "IC50"],
 "data": [
  ["[O]=[Re+3].[S-]CCSCC[S-].[S-]c1ccc(-c2ccccc2)cc1 [Compound 6]", "> 100 µM"],
  ["CCC[S-].[O]=[Re+3].[S-]CCSCC[S-] [Compound 4]", "9.3 µM"]
]}

Shifting focus to the molecule that follows.
I'm curious: which IC50 was measured for [O]=[Re+3].[S-]CCSCC[S-].[S-]c1ccccc1 [Compound 5] tested on human cathepsin B (CatB) (Homo sapiens, UniProt P07858)?
> 100 µM
